system: Bacteroides caccae; experiment: growth AUC relative to DMSO control (median of replicates) (fraction); higher = more growth (less inhibition), active = hit call of the paper; settings: 20 µM; 24 h
Parameter threshold = 1. Response is fulfilled when growth AUC meets or exceeds it, else not fulfilled.

- O=C(Nc1ccc(F)cc1F)c1cccnc1Oc1cccc(C(F)(F)F)c1: not fulfilled
- O=C(O)CNCP(=O)(O)O: fulfilled

From here, focus on the item given below.
Query block: I'd appreciate it if you could say whether COCC(C)N(C(=O)CCl)c1c(C)csc1C (configuration not stated) has growth AUC at least equal to 1.
Result block: fulfilled

###

We begin with a simple list: items and their reported growth AUC.
system: Bacteroides stercoris; assay: growth AUC relative to DMSO control (median of replicates) (fraction); higher = more growth (less inhibition), active = hit call of the paper; details: 20 µM; 24 h
Output spec: single numeric token, no unit.

- COCc1cnc(C2=NC(C)(C(C)C)C(=O)N2)c(C(=O)O)c1 (stereo unspecified): 1
- COP(=O)(OC)O/C(C)=C/C(=O)N(C)C: 1.02
- CCOC(=O)C(Cl)Cc1cc(-n2nc(C)n(C(F)F)c2=O)c(F)cc1Cl (stereo unspecified): 0.996
- COS(=O)(=O)[O-].Cn1c(-c2ccccc2)cc(-c2ccccc2)[n+]1C: 0.979
- CC#Cc1cc(C)nc(Nc2ccccc2)n1: 1

For `COCC(=O)N(c1c(C)cccc1C)[C@@H](C)C(=O)OC` on Bacteroides stercoris, measured growth AUC was 1

###

test system: Eubacterium rectale; assay: growth AUC relative to DMSO control (median of replicates) (fraction); higher = more growth (less inhibition), active = hit call of the paper; settings: 20 µM; 24 h;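 active = AUC reduced over 20% with Padj below 0.05 in at least 2 of 3 replicates; inactive = otherwise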
Form entry, call: pick from yes (active), no (inactive)

- C=CCOC(Cn1ccnc1)c1ccc(Cl)cc1Cl.O=S(=O)(O)O (stereo not given): yes
- OC[C@@H](O)[C@H]1O[C@@H]2O[C@H](C(Cl)(Cl)Cl)O[C@@H]2[C@H]1O (mixture of isomers): no
- CCN(CC)C(=O)SCc1ccc(Cl)cc1: no
- CCOc1nc(NC)nc(NC(=O)NS(=O)(=O)c2ccccc2C(=O)OC)n1: no
- COP(=O)(OC)Oc1ccc(S(C)(=O)=O)c(C)c1: no

Query block: I would be grateful if you could indicate the recorded call for `COCC(=O)N(c1c(C)cccc1C)N1CCOC1=O` .
Result block: no

Query block: I would be grateful if you could indicate the recorded call for Fc1ccc(C2(Cn3cncn3)OC2c2ccccc2Cl)cc1 (stereo not given) .
Result block: yes

Query block: I would be grateful if you could indicate the recorded call for CCOP(=O)(SC(C)CC)N1CCSC1=O (stereo not given) .
Result block: no

Query block: I would be grateful if you could indicate the recorded call for `ClC1=C(Cl)C(Cl)(C2(Cl)C(Cl)=C(Cl)C(Cl)=C2Cl)C(Cl)=C1Cl` .
Result block: no

Query block: I would be grateful if you could indicate the recorded call for `C=CCNC(=O)c1c([Si](C)(C)C)sc(C)c1C` .
Result block: no

###

system: Bacteroides thetaiotaomicron; assay: growth AUC relative to DMSO control (median of replicates) (fraction); higher = more growth (less inhibition), active = hit call of the paper; settings: 20 µM; 24 h
Parameter threshold = 1. Response is y when growth AUC meets or exceeds it, else n.

• CCOP(=S)(OCC)SCn1nnc2ccccc2c1=O = n

Query block: I'd appreciate it if you could say whether `O=C(Nc1ccccc1)Nc1ccnc(Cl)c1` has growth AUC at least equal to 1.
Result block: n

Query block: I'd appreciate it if you could say whether `CCCCc1c(C)nc(NCC)nc1OS(=O)(=O)N(C)C` has growth AUC at least equal to 1.
Result block: n

Query block: I'd appreciate it if you could say whether `CCCCOCN(C(=O)CCl)c1c(CC)cccc1CC` has growth AUC at least equal to 1.
Result block: n

Query block: I'd appreciate it if you could say whether `N#Cc1cc(I)c(O)c(I)c1` has growth AUC at least equal to 1.
Result block: n

Query block: I'd appreciate it if you could say whether CCCC1COC(Cn2cncn2)(c2ccc(Cl)cc2Cl)O1 (centres undefined) has growth AUC at least equal to 1.
Result block: n

Query block: I'd appreciate it if you could say whether `O=c1[nH]c(Cl)c(Cl)cc1Cl` has growth AUC at least equal to 1.
Result block: y

Query block: I'd appreciate it if you could say whether CC(C)(C)C(O)/C(=C/c1ccc(Cl)cc1Cl)n1cncn1 (mixture of isomers) has growth AUC at least equal to 1.
Result block: n

Query block: I'd appreciate it if you could say whether `CN(C)C(=O)Nc1cccc(OC(=O)NC(C)(C)C)c1` has growth AUC at least equal to 1.
Result block: n

Query block: I'd appreciate it if you could say whether `CC1(C)[C@H](C(=O)O[C@H](C#N)c2cccc(Oc3ccccc3)c2)[C@@H]1/C=C\C(=O)OC(C(F)(F)F)C(F)(F)F` has growth AUC at least equal to 1.
Result block: y

Query block: I'd appreciate it if you could say whether `CC#Cc1cc(C)nc(Nc2ccccc2)n1` has growth AUC at least equal to 1.
Result block: n

###

We begin with a simple list: items and their reported growth AUC.
system: Lactobacillus gasseri; experiment: growth AUC relative to DMSO control (median of replicates) (fraction); higher = more growth (less inhibition), active = hit call of the paper; settings: 20 µM; 24 h
Output spec: single numeric token, no unit.

Consider the following illustrative entries.
- CCOP(=O)(OCC)Oc1ccc(S(C)(=O)=O)cc1: 1
- COc1cc(OC)nc(NC(=O)NS(=O)(=O)c2ncccc2C(F)(F)F)n1: 1.02
- Cc1c(F)c(F)c(COC(=O)[C@@H]2[C@H](/C=C(\Cl)C(F)(F)F)C2(C)C)c(F)c1F (mixture of isomers): 0.897
- CC1=C(C(=O)Nc2ccccc2)S(=O)(=O)CCO1: 0.998
- CCOC(=O)/C=C(C)/C=C/C[C@@H](C)CCCC(C)C: 1.13
- O=[N+]([O-])/N=C1\NCCN1Cc1ccc(Cl)nc1: 0.862
- CCOP(=O)(NC(C)C)Oc1ccc(S(C)=O)c(C)c1 (stereo not drawn): 1.07
- CCO/N=C(\CC)C1=C(O)CC(c2c(C)cc(C)cc2C)CC1=O (stereo not drawn): 0.875
- CON(C)C(=O)Nc1ccc(Br)cc1: 1.15
- NC(=S)c1c(Cl)cccc1Cl: 0.884

Entry CCS(=O)c1c(C#N)nn(-c2c(Cl)cc(C(F)(F)F)cc2Cl)c1N (stereo not drawn) , growth AUC reported as 0.909

Entry CC1(C)OC(c2ccco2)CN1C(=O)C(Cl)Cl (stereo not drawn) , growth AUC reported as 1.07

Entry `O=[N+]([O-])c1ccccc1` , growth AUC reported as 1

Entry COP(=S)(OC)SC(CC(=O)O)C(=O)O (stereo not drawn) , growth AUC reported as 1.03

Entry CC(Oc1cc(Cl)c(Cl)cc1Cl)C(=O)O (stereo not drawn) , growth AUC reported as 1.04

Entry `COCC(=O)N(c1c(C)cccc1C)[C@@H](C)C(=O)OC` , growth AUC reported as 0.893

Entry `CP(=O)(O)CC(=O)O` , growth AUC reported as 1.02

###

We begin with a simple list: items and their reported growth AUC.
test system: Escherichia coli IAI1; test: growth AUC relative to DMSO control (median of replicates) (fraction); higher = more growth (less inhibition), active = hit call of the paper; details: 20 µM; 24 h
Output spec: single numeric token, no unit.

* Cc1[nH]c(=O)n(C(C)(C)C)c(=O)c1Cl | 0.942
* CNc1nc(C)c(C)c(OC(=O)N(C)C)n1 | 0.957

Entry `CCOc1nc(NC)nc(NC(=O)NS(=O)(=O)c2ccccc2C(=O)OC)n1` , growth AUC reported as 1.02

Entry `Nc1cc(Cl)cc(C(=O)O)c1Cl` , growth AUC reported as 1.04

Entry `CSc1nc(NC(C)C)nc(NC(C)C)n1` , growth AUC reported as 0.976

Entry `CNC(=O)O/N=C/C(C)(C)SC` , growth AUC reported as 1.03

Entry `CCOP(=O)(OCC)O/C(=C\Cl)c1ccc(Cl)cc1Cl` , growth AUC reported as 1.01

Entry `C[C@@H](Oc1ccc(Oc2ncc(C(F)(F)F)cc2Cl)cc1)C(=O)O` , growth AUC reported as 0.994

Entry `O=C1CCc2cccc3c2N1CC3` , growth AUC reported as 0.966

Entry `N#Cc1sc2c(=O)c3ccccc3c(=O)c=2sc1C#N` , growth AUC reported as 0.957

Entry `O=C(O)C(F)(F)C(F)(F)C(F)(F)C(F)(F)C(F)(F)C(F)(F)C(F)(F)C(F)(F)F` , growth AUC reported as 1.01

Entry `CCOP(=S)(OCC)Oc1cc(C)nc(N(CC)CC)n1` , growth AUC reported as 0.994

Entry `CCOc1cc(Oc2ccc(C(F)(F)F)cc2Cl)ccc1[N+](=O)[O-]` , growth AUC reported as 0.979

Entry `Cc1ccccc1C(=O)Nc1cccc(OC(C)C)c1` , growth AUC reported as 1
